- METHOD DESCRIPTION: chemical genetic growth profiling, strain panel (AID 1159580);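 also: tested at 20 µM; growth read once vehicle control cultures reached saturation at 30 °C; lower values mean less growth of the strain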
- EXPERIMENTAL SETUP: S. cerevisiae deletion strains, growth OD, locus YJL168C, strain set2
In all, about 5,500 compounds went through this assay and about 2,000 (36%) were called active. About 18% were inconclusive and are not listed. Rule as the data show it: active = normalized growth mostly below about 0.91 (no sharp cut-off); inconclusive = no clear call, values can overlap the other calls; inactive = mostly above about 0.92. The list shows a part of the results.
Output constraint: value belongs to active, inactive

For this compound, state the assay outcome: Cc1cc(N)c2ccccc2[n+]1CCCCCCCCCC[n+]1c(C)cc(N)c2ccccc21 active

What call does the record list for COP(N)(=O)SC (stereo unspecified) ? inactive

Record request — test call for Oc1ccc2c3c1OC1[C@@H](O)CC[C@@]4(O)[C@@H](C2)N(CC2CCC2)CC[C@]314 (stereo partly specified) inactive

What is the recorded call for this compound in the test? CC1(C)Oc2ccc3ccc(=O)oc3c2CC1O (stereo unspecified) inactive

Lab log entry: CC[C@H]1CN2CCC1C[C@@H]2[C@@H](O)c1ccnc2ccc(OC)cc12 (stereo partly specified) — outcome as called in the assay? inactive

// return assay outcome for C[C@]12CCC(=O)C=C1CCc1ccc(O)cc12 inactive

For CC1=C2C(O)C(=O)OC3CC4C(C)(C)C(=O)C=C[C@]4(C)C(CC1)[C@]23C (stereo partly specified) , what call appears in the results of this test? inactive

Lab log entry: CC1(C)S[C@@H]2[C@H](NC(=O)[C@@H](N)c3ccc(O)cc3)C(=O)N2[C@H]1C(=O)O — outcome as called in the assay? inactive

Lab log entry: CC1(C)C(=O)CC[C@@]2(C)C1C[C@@H](O)[C@@]1(C)C3=CC(=O)O[C@@H](c4ccoc4)[C@]3(C)CCC21 (stereo partly specified) — outcome as called in the assay? inactive

Record lookup: outcome of this test for O=C(/C=C(\O)c1ccccc1)c1ccccc1O ? inactive

Tell me the assay call for CCn1nc(C(=O)O)c(=O)c2cc3c(cc21)OCO3 please. inactive
